In this section, each of the molecules is paired with its reported zone of inhibition at 250 µg/mL.
system: Staphylococcus aureus; test: Antibacterial activity against Staphylococcus aureus 209p at 250 ug/ml after 48 hrs by agar well diffusion technique; type: functional; conditions: read-out: IZ
value_type: zone of inhibition at 250 µg/mL (mm)

                               line_notation                       value_type  numeric_result
 0   Cc1cccc(/C=C/C(=O)c2ccc(N3CCNCC3)cc2)c1  zone of inhibition at 250 µg/mL              24
 1  O=C(/C=C/C=C/c1ccccc1)c1ccc(N2CCNCC2)cc1  zone of inhibition at 250 µg/mL              10
 2      O=C(/C=C/c1ccccc1)c1ccc(N2CCNCC2)cc1  zone of inhibition at 250 µg/mL              22
 3       COc1ccc(/C=C/C(=O)c2cc(Cl)sc2Cl)cc1  zone of inhibition at 250 µg/mL              14
 4  COc1ccc(/C=C/C(=O)c2ccc(N3CCNCC3)cc2)cc1  zone of inhibition at 250 µg/mL              24
 5        Cc1cccc(/C=C/C(=O)c2cc(Cl)sc2Cl)c1  zone of inhibition at 250 µg/mL              11
 6  COc1cc(/C=C/C(=O)c2ccc(N3CCNCC3)cc2)cc(OC)c1OC  zone of inhibition at 250 µg/mL               6
 7  O=C(O)c1cn(C2CC2)c2cc(N3CCNCC3)c(F)cc2c1=O  zone of inhibition at 250 µg/mL              22
 8        Cc1ccc(/C=C/C(=O)c2cc(Cl)sc2Cl)cc1  zone of inhibition at 250 µg/mL              12
 9           O=C(/C=C/c1ccccc1)c1cc(Cl)sc1Cl  zone of inhibition at 250 µg/mL              18
10  COc1cc(/C=C/C(=O)c2cc(Cl)sc2Cl)cc(OC)c1OC  zone of inhibition at 250 µg/mL              12
11  O=C(/C=C/c1cccc([N+](=O)[O-])c1)c1cc(Cl)sc1Cl  zone of inhibition at 250 µg/mL              24
12       O=C(/C=C/c1ccc(Cl)cc1)c1cc(Cl)sc1Cl  zone of inhibition at 250 µg/mL              14
13  O=C(/C=C/c1ccc(Cl)cc1)c1ccc(N2CCNCC2)cc1  zone of inhibition at 250 µg/mL              18
14       O=C(/C=C/C=C/c1ccccc1)c1cc(Cl)sc1Cl  zone of inhibition at 250 µg/mL               9
15   Cc1ccc(/C=C/C(=O)c2ccc(N3CCNCC3)cc2)cc1  zone of inhibition at 250 µg/mL              16
16  O=C(/C=C/c1cccc([N+](=O)[O-])c1)c1ccc(N2CCNCC2)cc1  zone of inhibition at 250 µg/mL              24

Measured values drawn from ChEMBL document CHEMBL1149705 for this set.
